measurement_notes: Oral bioavailability in mouse at 2 mg/kg
Format: ADME, organism-based
assay_setup: in vivo

[
  {
    "chemical_structure": "C[C@H](NC(=O)[C@@H](NC(=O)C(C)(C)N)[C@@H](C)c1ccc(-c2ccccc2)cc1)c1nc2cc(Cl)c(Cl)cc2[nH]1",
    "bioavailability": "17%"
  }
]

* * *

assay_target: Lysosomal Pro-X carboxypeptidase (Homo sapiens)
Sequence (P42785 whole entry): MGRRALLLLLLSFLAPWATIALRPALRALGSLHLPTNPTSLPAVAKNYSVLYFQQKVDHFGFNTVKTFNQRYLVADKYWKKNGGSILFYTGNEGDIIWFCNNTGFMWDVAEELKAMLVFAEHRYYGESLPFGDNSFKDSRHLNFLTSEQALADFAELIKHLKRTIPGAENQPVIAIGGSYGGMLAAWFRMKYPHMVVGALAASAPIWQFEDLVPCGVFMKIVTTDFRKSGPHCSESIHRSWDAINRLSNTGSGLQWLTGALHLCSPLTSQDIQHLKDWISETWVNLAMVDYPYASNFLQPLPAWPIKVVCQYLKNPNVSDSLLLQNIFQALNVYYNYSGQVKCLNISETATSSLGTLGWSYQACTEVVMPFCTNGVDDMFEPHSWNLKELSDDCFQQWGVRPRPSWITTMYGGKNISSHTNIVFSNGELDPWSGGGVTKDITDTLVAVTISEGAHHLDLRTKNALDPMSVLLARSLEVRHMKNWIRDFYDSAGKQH
measurement_notes: Inhibition of human recombinant PrCP using Mca-Ala-Pro-Lys(Dnp)-OH as substrate for 30 mins by continuous fluorimetric assay
pIC50: −log10 of the molar value.
property_label: pIC50

[
  {
    "chemical_structure": "CC(C)(NC(=O)CCN1CCC(c2ccccc2)CC1)c1nc2cc(Cl)c(Cl)cc2[nH]1",
    "property_label": "pIC50",
    "observed_value": 6.74
  },
  {
    "chemical_structure": "CC(C)(C)OC(=O)N[C@@H](Cc1ccc(-c2ccccc2)cc1)C(=O)N1CCCC[C@H]1c1nc2cc(Cl)c(Cl)cc2[nH]1",
    "property_label": "pIC50",
    "observed_value": "< 5.00"
  },
  {
    "chemical_structure": "Clc1cc2nc(-c3cccnc3NCCc3ccc(-c4ccccc4)cc3)[nH]c2cc1Cl",
    "property_label": "pIC50",
    "observed_value": "< 5.00"
  },
  {
    "chemical_structure": "Clc1cc2nc(-c3cccnc3OCCc3ccc(-c4ccccc4)cc3)[nH]c2cc1Cl",
    "property_label": "pIC50",
    "observed_value": "< 5.00"
  },
  {
    "chemical_structure": "O=C(CCc1ccc(-c2ccccc2)cc1)NCc1nc2cc(Cl)c(Cl)cc2[nH]1",
    "property_label": "pIC50",
    "observed_value": "< 5.00"
  }
]

The measured values listed here are drawn from ChEMBL document CHEMBL1949559.
